test system: human adult PBMCs; experiment: Cytokine production by stimulated human adult PBMCs (ELISA / multiplex); assay type: cell-based; conditions: human adult PBMCs, 24 hours, compounds at 100 µM (FIG. 7), ELISA, median
Listed here are compounds together with their documented Adult PBMCs (median ng/ml) IL-6 (N = 7).

Study these solved cases before continuing.
Compound	Observation Type	Reported Result
CNc1ccc([N+](=O)[O-])cc1-n1cnc(-c2ccc([N+](=O)[O-])cc2)c1 [TM-A, reference compound]	Adult PBMCs (median ng/ml) IL-6 (N = 7)	2.154 ng/mL
CNC(=O)c1c(NC(=O)c2ccc(Cl)cc2)sc2c1CCC2	Adult PBMCs (median ng/ml) IL-6 (N = 7)	0.008 ng/mL

Lookup: Please report the recorded Adult PBMCs (median ng/ml) IL-6 (N = 7) for CNC(=O)c1c(NC(=O)c2ccc(S(=O)(=O)N3CCCCC3)cc2)sc(C)c1C .
Found: 0.008 ng/mL

Lookup: Fill in the blank: the reported Adult PBMCs (median ng/ml) IL-6 (N = 7) of CNC(=O)c1c(NC(=O)c2ccc(S(=O)(=O)N(C)C)cc2)sc(C)c1C is ____.
Found: 0.008 ng/mL

Lookup: // returns reported Adult PBMCs (median ng/ml) IL-6 (N = 7) for input CNC(=O)c1c(NC(=O)c2ccc(S(=O)(=O)N(C)C)cc2)sc2c1CCCCC2
Found: 0.008 ng/mL
